test_summary: Noncompartmental analysis of absolute bioavailability study JPBS
Format: in vivo, human
condition_context: human, plasma, oral, 200 mg
recorded_endpoint: AUC(0-inf) (ng·h/mL)
Write the value in ng·h/mL as a bare number.

Asked: Query: AUC(0-inf); subject: CCN1CCN(Cc2ccc(Nc3ncc(F)c(-c4cc(F)c5nc(C)n(C(C)C)c5c4)n3)nc2)CC1
Given back: 3730

###

test_summary: Semimechanistic population PK model
Type: in vivo, human
condition_context: human, plasma, oral, Km for saturable absorption, final population model, Bootstrap median (95% CI)
recorded_endpoint: Km
Kindly format the answer as number then unit.

Asked: If you can, please state the reported Km value of CCN1CCN(Cc2ccc(Nc3ncc(F)c(-c4cc(F)c5nc(C)n(C(C)C)c5c4)n3)nc2)CC1 [Abemaciclib] .
Given back: 51.8 µM
